Source: the kinase profiling compilation of Christmann-Franck et al. (2016)

ASSAYED_TARGET: PRKCG (human)
ASSAY_OVERVIEW: split-luciferase competition binding
EXPERIMENTAL_CONDITIONS: compound 10.0 µM
MEASUREMENT_NAME: inhibition (%)

Need inhibition of NC(=O)Nc1sc(-c2ccc(F)cc2)cc1C(N)=O , thanks.
0

inhibition lookup needed for CC(C)(C)n1nc(-c2ccc(Cl)cc2)c2c(N)ncnc21 , thanks.
0

What value of measured inhibition is listed for N#CC(=C(\N)Sc1ccccc1N)/C(C#N)=C(/N)Sc1ccccc1N ?
0

// returns reported inhibition for input CO[C@@H]1[C@H](N(C)C(=O)c2ccccc2)C[C@H]2O[C@]1(C)n1c3ccccc3c3c4c(c5c6ccccc6n2c5c31)C(=O)NC4
52

P = Cn1cc(C2=C(c3ccc(Cl)cc3Cl)C(=O)NC2=O)c2ccccc21
Q = N#C/C(=C\c1ccc(O)c(O)c1)C(=O)NCc1ccccc1
R = COc1cc2nccc(Oc3ccc(NC(=O)Nc4ccc(F)cc4F)c(F)c3)c2cc1OC
# sort list by recorded inhibition, greatest to least Form entry: ranked labels (order as requested).
R, P, Q

* * *

ASSAYED_TARGET: PRKACB (human)
ASSAY_OVERVIEW: split-luciferase competition binding
EXPERIMENTAL_CONDITIONS: compound 10.0 µM
MEASUREMENT_NAME: inhibition (%)

Would you please look over these solved cases?
// query inhibition value for entry O=S(=O)(c1cccc2c(O)nccc12)N1CCCNCC1
0

Name the reported inhibition value associated with the compound Cc1cc2nc3c(=O)[nH]c(=O)nc-3n(C)c2cc1C=O
21

Bench note: what inhibition did Cc1cc(F)c(Nc2ncnc3cc(OCc4ccccc4)ccc23)cc1O show?
0

Look at this compound and give its reported inhibition. O=S(=O)(c1cccc2c(Cl)cccc12)N1CCCNCC1
0

Using the record for N#CC(=C(\N)Sc1ccccc1N)/C(C#N)=C(/N)Sc1ccccc1N , report its inhibition.
0

1 = O=C(c1ccc(Nc2nccc(-c3cc4ccccc4s3)n2)cc1)N1CCC(N2CCCC2)CC1
2 = Oc1ccc(-c2nc(-c3ccc(F)cc3)c(-c3ccncc3)[nH]2)cc1
3 = O=C(Nc1cc(C(F)(F)F)cc(C(F)(F)F)c1)c1cc(Cl)ccc1O
4 = Cn1cc(C2=C(c3cn(CCCSC(=N)N)c4ccccc34)C(=O)NC2=O)c2ccccc21
5 = O=C1NC(=O)C(c2ccccc2[N+](=O)[O-])=C1Nc1ccc(O)c(Cl)c1
Order the items by recorded inhibition; the first position goes to the largest value. Enter labels, ranked according to the request.
4, 1, 5, 3, 2
(4: 73%, 1: 12%, 5: 5%, 3: 1%, 2: 0%)

I = CC[C@@H](CO)Nc1nc(NCc2ccccc2)c2ncn(C(C)C)c2n1
II = O=C1Nc2ccc(I)cc2/C1=C/c1cc(Br)c(O)c(Br)c1
// compare measured inhibition between I and II ; output the lower one Answer by stating the label of the chosen item.
I
(I: 0%, II: 11%)

* * *

Test system: PRKACA (mouse)
ASSAY_OVERVIEW: split-luciferase competition binding
EXPERIMENTAL_CONDITIONS: compound 10.0 µM; accession and sequence are those of the human protein
MEASUREMENT_NAME: inhibition (%)

I'd like to know its inhibition. The molecule in question is NC(=O)Nc1sc(-c2ccc(F)cc2)cc1C(N)=O
4

A = O=C1Nc2ccc(I)cc2/C1=C/c1cc(Br)c(O)c(Br)c1
B = Cc1ccccc1C(=O)c1ccc(Nc2ccc(Br)cc2N)cc1Cl
Could you kindly indicate whether A or B has the higher inhibition value? Answer with the label corresponding to your selection.
A
(A: 9%, B: 4%)
